Molecular target: SARS-CoV-2 spike receptor binding domain (RBD) (SARS-CoV-2, founder (Wuhan-Hu-1) …, UniProt P0DTC2, amine-PEG3-biotin attached with sortase A at the C-terminal sortase motif (for SPR))
Property Name: binding result

{"columns": ["Binder", "Property Name", "Result Value"],
 "data": [
  ["H8 (VHH) VHH: QVQLVESGGGLVQPGGSLRLSCAASGFTLDDYAIGWFRQAPGKEREGISFITSSDGSTYYVDSVKGRFTISRDNAKNTVYLQMNDLTPEDTAVYYCAVGPSFSYTGSTYYRSELPWDYDYWGQGTQVTVSS", "binding result", "binds"],
  ["H9 (VHH) VHH: QVQLVESGGGLVQPGGSLRLSCAASGFTLDDYAIAWFRQAPGKEREGVSFITSSDGSTYYVDSVKGRFTISRDNAKNTVYLQMNDLTPEDTAVYYCAVGPSFSYTGSTYYRSELPWDYDYWGQGTQVTVSS", "binding result", "binds"],
  ["H5 (VHH) VHH: QVQLVESGGGLVQPGGSLRLSCAASGVTLDDYAIGWFRQAPGKEREGVSFITSSDGSTFYVDSVKGRFTIARDNAKNTVYLQMNALTPEDTAVYYCAVGPSFSSTGSTYYRSELPWDYDYWGQGTQVTVSS", "binding result", "binds"]
]}

Origin of the recorded values: paper PMC8748511
